Values compiled from patent US20250214969A1.

In this section, each of the compounds is paired with its reported IC50.
Biological target: truncated His-MBP-Tev-KLHDC2 (residues 1-363) (Homo sapiens)
Construct: truncated His -MBP-Tev-KLHDC2 (residues 1-363) purified from E. coli; made in house; host or cells: E. coli
Sequence (Q9Y2U9 1-363): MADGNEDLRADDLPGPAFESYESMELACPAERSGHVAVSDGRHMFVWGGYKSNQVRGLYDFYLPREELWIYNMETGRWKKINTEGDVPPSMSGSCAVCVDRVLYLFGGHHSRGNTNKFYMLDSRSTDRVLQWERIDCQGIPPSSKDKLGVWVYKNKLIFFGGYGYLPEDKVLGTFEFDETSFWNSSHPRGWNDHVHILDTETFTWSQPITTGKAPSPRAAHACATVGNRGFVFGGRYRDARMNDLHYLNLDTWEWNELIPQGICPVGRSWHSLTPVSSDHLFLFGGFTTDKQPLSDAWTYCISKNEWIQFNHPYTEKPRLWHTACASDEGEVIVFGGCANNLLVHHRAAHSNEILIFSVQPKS
Assay: KLHDC2 FP competition binding assay
Conditions: 15 nM KLHDC2 (residues 1-363), 10 nM fluorescein-labeled diglycine peptide probe, read-out: KLHDC2 binding Human FP: average external IC50

// solved cases for IC50 follow
>>> endpoint_value("Cc1ccc(Cl)cc1-c1ccc(=O)n(CC(=O)O)c1")
"> 5 µM"
>>> endpoint_value("CNc1cncc(N2CCC[C@H](C(=O)Nc3ccc(Cl)c(CC(=O)O)c3)C2)c1")
"0.5 to 5 µM"
>>> endpoint_value("O=C(O)Cn1cc(NC(=O)c2cc(-c3ccccc3)ccn2)ccc1=O")
"> 5 µM"
>>> endpoint_value("C[C@H](C(=O)O)n1cc(NC(=O)c2cccc(-c3cccnc3)c2)ccc1=O")
"> 5 µM"
>>> endpoint_value("O=C(O)Cn1cc(NC(=O)c2cccc(-c3cccnc3)c2)c(C(F)(F)F)cc1=O")
"> 5 µM"
>>> endpoint_value("O=C(O)Cn1cc(NC(=O)[C@@H]2CCCN(c3cccnc3)C2)c(C2CC2)cc1=O")
"> 5 µM"
>>> endpoint_value("CCc1ccc(C(=O)CCC(=O)Nc2ccc(=O)n(CC(=O)O)c2)cc1")
"> 5 µM"
>>> endpoint_value("O=C(O)Cn1cc(NC(=O)[C@H]2CCCN(c3cncc4ccccc34)C2)ccc1=O")
"< 0.05 µM"

# context switch: different compound, same IC50
Prompt line: I'm curious: which IC50 was measured for Cc1ccc2cc(C(=O)Nc3ccc(=O)n(CC(=O)O)c3)c(C)nc2c1 tested on truncated His-MBP-Tev-KLHDC2 (residues 1-363) (Homo sapiens)?
Response line: > 5 µM
